- assay-system: T1, human GPVI-Fc fusion protein (human, UniProt Q9HCN6 21-267, limits assumed)
- T1 construct: also called human GPVI protein antigen
- T1 sequence (looked up): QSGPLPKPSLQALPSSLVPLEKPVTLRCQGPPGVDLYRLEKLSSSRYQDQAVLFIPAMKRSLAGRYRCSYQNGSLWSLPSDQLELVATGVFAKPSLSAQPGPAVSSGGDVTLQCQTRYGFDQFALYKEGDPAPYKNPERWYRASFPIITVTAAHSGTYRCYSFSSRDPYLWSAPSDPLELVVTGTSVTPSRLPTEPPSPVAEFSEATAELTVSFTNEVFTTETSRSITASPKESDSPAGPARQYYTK
- assay-text: BLI (Octet), GPVI-Fc on biosensor, 1:1 fit

{"binder": "HC1 LC3 humanized Fab (Fab, V domains shown, also called VH1:VL3) VH: QVQLQESGPGLVKPSETLSLTCTASGFSLTSYGVTWIRQPPGKGLEWIGVIWGDGSTNYHSGLRSRVTISVDTSKSQFSLKLSSVTAADTAVYYCAKPIYYDFDDDAMDYWGQGTLVTVSS VL: DIQLTQSPSTLSASVGDRVTITCKASQNVGTYVAWYQQKPGKAPKLLIYSASYRCSGVPSRFSGSGSGTEFTLTISSLQPDDFTTYYCHQYNNYPLTFGQGTKVEIKR", "kon (M⁻¹ s⁻¹)": 777000}
{"binder": "HC3 LC3 humanized Fab (Fab, V domains shown, also called VH3:VL3) VH: QVQLVESGGGVVQPGRSLRLSCVASGFSLTSYGVTWVRQAPGKGLEWVAVIWGDGSTNYHSGLRSRFTISRDNSKNTMFLQMNSLRADDTAVYYCAKPIYYDFDDDAMDYWGQGTLVTVSS VL: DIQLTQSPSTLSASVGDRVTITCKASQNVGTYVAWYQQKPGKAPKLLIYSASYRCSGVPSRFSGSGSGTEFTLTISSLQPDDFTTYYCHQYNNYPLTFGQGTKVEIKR", "kon (M⁻¹ s⁻¹)": "1.87e+06"}
{"binder": "HC1 LC4 humanized Fab (Fab, V domains shown, also called VH1:VL4) VH: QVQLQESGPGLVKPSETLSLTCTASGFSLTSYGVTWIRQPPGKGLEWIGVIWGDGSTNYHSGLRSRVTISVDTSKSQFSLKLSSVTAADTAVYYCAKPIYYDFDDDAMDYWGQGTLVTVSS VL: DIVMTQSPATLSLSPGDRATLSCKASQNVGTYVAWYQQKPGQAPRLLIYSASYRCSGIPARFSGSGSGTDFTLTISSLQSEDFAVYYCHQYNNYPLTFGGGTKVEIKR", "kon (M⁻¹ s⁻¹)": 671000}

Data provenance: patent EP4431526A1
